system.tested: T1, soluble CD73 dimer (human, UniProt P21589 27-549, limits assumed)
T1 construct: CD73 in the flow (SPR) or in solution (BLI binning); also called soluble human CD73
T1 sequence: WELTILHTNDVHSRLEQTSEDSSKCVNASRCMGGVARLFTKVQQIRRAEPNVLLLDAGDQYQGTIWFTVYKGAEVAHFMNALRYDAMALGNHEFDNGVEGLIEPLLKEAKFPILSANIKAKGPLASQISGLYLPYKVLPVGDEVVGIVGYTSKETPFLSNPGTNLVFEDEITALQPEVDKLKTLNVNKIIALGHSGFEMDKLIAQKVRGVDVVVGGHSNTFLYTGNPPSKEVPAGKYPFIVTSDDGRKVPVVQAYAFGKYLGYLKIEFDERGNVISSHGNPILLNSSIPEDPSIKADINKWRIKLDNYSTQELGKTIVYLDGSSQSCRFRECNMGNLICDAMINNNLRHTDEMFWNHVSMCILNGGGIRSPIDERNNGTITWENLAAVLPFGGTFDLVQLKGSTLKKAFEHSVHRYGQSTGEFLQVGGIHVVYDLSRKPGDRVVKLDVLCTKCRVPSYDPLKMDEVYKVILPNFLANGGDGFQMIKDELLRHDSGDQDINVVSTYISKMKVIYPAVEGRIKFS
experiment: SPR, antibody captured on Protein A chip, CD73 in flow; Langmuir 1:1 fit
Respond with Yes for kon values of 400000 M⁻¹ s⁻¹ and above, No for values below.

>>> assigned_class("TB19/AS30 (bispecific antibody, part only; not given: AS30 arm, constant regions, V domains shown, not shown: another chain or arm of the molecule; a dimerising Fc or GST; small tags and cut ends) VH: QEQLQESGPGLVKPSETLSLTCTVSGGSIRNNYYNWIRQPAGKGLEWIGRIYISGTTNSNPSLKSRVTMSIDTSKNQFSLKLSSVTAADTAIYYCAREHYVSGTSLDNWGQGTLVTVSS VL: EIVMTQSPTTLSLSPGERATLSCRASQSVNTNYFSWYQQKPGLTPRLLIYGTSTRATGIPARFSGSGSGTDFTLTISSLQPEDFGIYYCQQDYNLPYTFGQGTYLEIK")
"No"
>>> assigned_class("TB19/TC29 (bispecific antibody, part only; not given: TC29 arm; constant regions, V domains shown, part only) VH: QEQLQESGPGLVKPSETLSLTCTVSGGSIRNNYYNWIRQPAGKGLEWIGRIYISGTTNSNPSLKSRVTMSIDTSKNQFSLKLSSVTAADTAIYYCAREHYVSGTSLDNWGQGTLVTVSS VL: EIVMTQSPTTLSLSPGERATLSCRASQSVNTNYFSWYQQKPGLTPRLLIYGTSTRATGIPARFSGSGSGTDFTLTISSLQPEDFGIYYCQQDYNLPYTFGQGTYLEIK")
"Yes"

In: State whether the measured kon reaches 400000 M⁻¹ s⁻¹, counting equality as reaching it, for CL25/TB19 (bispecific antibody, part only; not given: CL25 arm; constant regions, V domains shown, part only) VH: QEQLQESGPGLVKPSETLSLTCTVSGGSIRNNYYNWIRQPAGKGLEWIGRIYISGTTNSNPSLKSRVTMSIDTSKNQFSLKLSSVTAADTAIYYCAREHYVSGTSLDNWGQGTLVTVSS VL: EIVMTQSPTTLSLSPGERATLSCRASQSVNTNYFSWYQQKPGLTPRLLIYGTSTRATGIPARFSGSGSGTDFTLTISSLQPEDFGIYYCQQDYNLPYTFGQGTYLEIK
Out: Yes

In: Identify whether the reported kon of the following binder is 400000 M⁻¹ s⁻¹ or greater: TB19/H19 (bispecific antibody, part only; not given: H19 arm; constant regions, V domains shown, part only) VH: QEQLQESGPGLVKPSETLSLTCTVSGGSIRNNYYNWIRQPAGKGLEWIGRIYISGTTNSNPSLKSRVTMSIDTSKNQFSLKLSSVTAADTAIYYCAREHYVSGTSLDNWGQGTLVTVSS VL: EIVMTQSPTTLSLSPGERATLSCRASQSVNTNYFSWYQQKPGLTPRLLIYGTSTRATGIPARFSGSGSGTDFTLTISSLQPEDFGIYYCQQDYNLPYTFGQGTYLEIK
Out: Yes

In: # bool: kon of E3.2/TB19 (bispecific antibody, part only; not given: E3.2 arm; constant regions, V domains shown, part only) VH: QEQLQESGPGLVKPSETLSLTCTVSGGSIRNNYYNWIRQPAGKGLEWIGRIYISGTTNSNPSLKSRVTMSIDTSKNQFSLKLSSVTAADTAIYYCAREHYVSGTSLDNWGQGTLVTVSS VL: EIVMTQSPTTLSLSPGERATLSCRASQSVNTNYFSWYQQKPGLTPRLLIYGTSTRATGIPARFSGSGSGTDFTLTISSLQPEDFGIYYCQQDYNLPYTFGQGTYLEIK >= 400000 M⁻¹ s⁻¹
Out: No

In: Quick check, kon >= 400000 M⁻¹ s⁻¹? TB19/H7 (bispecific antibody, part only; not given: H7 arm; constant regions, V domains shown, part only) VH: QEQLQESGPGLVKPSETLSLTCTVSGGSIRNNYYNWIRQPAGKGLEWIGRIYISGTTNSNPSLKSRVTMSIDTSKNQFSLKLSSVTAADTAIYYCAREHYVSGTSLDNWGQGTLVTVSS VL: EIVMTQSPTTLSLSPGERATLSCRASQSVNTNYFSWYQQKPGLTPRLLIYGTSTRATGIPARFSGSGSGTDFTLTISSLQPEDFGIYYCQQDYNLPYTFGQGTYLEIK
Out: Yes
